# RBA listing for each entry below
biological target: Estrogen receptor (Homo sapiens) (UniProt P03372); assay: Displacement of [2,4,6,7-3H]17beta-estradiol from human recombinant ERalpha receptor relative to 17-beta-estradiol
ENDPOINT_NAME: RBA (%)

[
  {
    "SMILES_STRUCTURE": "Oc1ccc(-c2cnc(-c3cccc(O)c3)s2)cc1",
    "TEST_SYSTEM": "Estrogen receptor (Homo sapiens) (UniProt P03372)",
    "ENDPOINT_NAME": "RBA",
    "QUALIFYING_SIGN": "<",
    "RESULT_NUMBER": 0.01
  },
  {
    "SMILES_STRUCTURE": "Oc1ccc(-c2cc(-c3cccc(O)c3)cs2)cc1",
    "TEST_SYSTEM": "Estrogen receptor (Homo sapiens) (UniProt P03372)",
    "ENDPOINT_NAME": "RBA",
    "QUALIFYING_SIGN": "=",
    "RESULT_NUMBER": 0.01
  },
  {
    "SMILES_STRUCTURE": "Oc1cccc(-c2ccc(-c3cccc(O)c3)nc2)c1",
    "TEST_SYSTEM": "Estrogen receptor (Homo sapiens) (UniProt P03372)",
    "ENDPOINT_NAME": "RBA",
    "QUALIFYING_SIGN": "=",
    "RESULT_NUMBER": 0.01
  },
  {
    "SMILES_STRUCTURE": "Oc1cccc(-c2ccc(-c3cccc(O)c3)cc2)c1",
    "TEST_SYSTEM": "Estrogen receptor (Homo sapiens) (UniProt P03372)",
    "ENDPOINT_NAME": "RBA",
    "QUALIFYING_SIGN": "<",
    "RESULT_NUMBER": 0.001
  },
  {
    "SMILES_STRUCTURE": "Oc1ccc(-c2csc(-c3cccc(O)c3)c2)cc1",
    "TEST_SYSTEM": "Estrogen receptor (Homo sapiens) (UniProt P03372)",
    "ENDPOINT_NAME": "RBA",
    "QUALIFYING_SIGN": "=",
    "RESULT_NUMBER": 0.01
  }
]

---

experiment: Cmax in Wistar rat at 10 mg/kg, po by cassette dosing; format: ADME, organism-based; design: dose 10 mg/kg, route oral; conditions: in vivo
ENDPOINT_NAME: Cmax (ng/mL)

[
  {
    "SMILES_STRUCTURE": "Oc1cccc(-c2nnc(-c3cccc(O)c3)nn2)c1",
    "RESULT_NUMBER": 106
  },
  {
    "SMILES_STRUCTURE": "Oc1ccc(-c2cnc(-c3cccc(O)c3)s2)cc1",
    "RESULT_NUMBER": 7.8
  }
]

---

Target: 17-beta-hydroxysteroid dehydrogenase type 1 (Homo sapiens, UniProt P14061)
Sequence (P14061 whole entry): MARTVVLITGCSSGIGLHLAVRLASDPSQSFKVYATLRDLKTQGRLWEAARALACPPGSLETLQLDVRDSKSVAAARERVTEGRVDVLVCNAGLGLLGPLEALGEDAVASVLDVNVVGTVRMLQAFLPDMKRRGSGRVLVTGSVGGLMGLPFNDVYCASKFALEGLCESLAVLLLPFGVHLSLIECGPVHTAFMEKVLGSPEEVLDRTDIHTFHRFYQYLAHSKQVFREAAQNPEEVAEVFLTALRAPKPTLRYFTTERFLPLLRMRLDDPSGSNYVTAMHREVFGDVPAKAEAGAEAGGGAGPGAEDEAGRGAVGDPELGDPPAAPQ
pIC50: −log10 of the molar value.
# pIC50 listing for each entry below
ENDPOINT_NAME: pIC50

[
  {
    "SMILES_STRUCTURE": "Oc1ccc(-c2cccc(-c3cccc(O)c3)c2)cc1",
    "QUALIFYING_SIGN": "<",
    "RESULT_NUMBER": 6.00
  },
  {
    "SMILES_STRUCTURE": "Oc1cccc(-c2csc(-c3cccc(O)c3)n2)c1",
    "QUALIFYING_SIGN": "=",
    "RESULT_NUMBER": 6.34
  },
  {
    "SMILES_STRUCTURE": "Oc1ccc(-c2nsc(-c3cccc(O)c3)n2)cc1",
    "QUALIFYING_SIGN": "=",
    "RESULT_NUMBER": 6.38
  },
  {
    "SMILES_STRUCTURE": "Oc1cccc(-c2cnc(-c3cccc(O)c3)s2)c1",
    "QUALIFYING_SIGN": "=",
    "RESULT_NUMBER": 6.61
  },
  {
    "SMILES_STRUCTURE": "Oc1cccc(-c2ccc(-c3cccc(O)c3)cc2)c1",
    "QUALIFYING_SIGN": "=",
    "RESULT_NUMBER": 6.76
  },
  {
    "SMILES_STRUCTURE": "Oc1ccc(-c2nc(-c3cccc(O)c3)cs2)cc1",
    "QUALIFYING_SIGN": "<",
    "RESULT_NUMBER": 5.30
  }
]

---

molecular target: Estrogen receptor beta (Homo sapiens); assay: Displacement of [2,4,6,7-3H]17beta-estradiol from human recombinant ERbeta receptor relative to 17-beta-estradiol

[
  {
    "SMILES_STRUCTURE": "Oc1ccc(-c2cc(-c3cccc(O)c3)cs2)cc1",
    "QUALIFYING_SIGN": "=",
    "RBA [%]": 0.1
  },
  {
    "SMILES_STRUCTURE": "Oc1cccc(-c2ccc(-c3cccc(O)c3)nc2)c1",
    "QUALIFYING_SIGN": "<",
    "RBA [%]": 0.01
  },
  {
    "SMILES_STRUCTURE": "Oc1ccc(-c2cnc(-c3cccc(O)c3)s2)cc1",
    "QUALIFYING_SIGN": "=",
    "RBA [%]": 0.01
  },
  {
    "SMILES_STRUCTURE": "Oc1ccc(-c2csc(-c3cccc(O)c3)c2)cc1",
    "QUALIFYING_SIGN": "=",
    "RBA [%]": 0.1
  },
  {
    "SMILES_STRUCTURE": "Oc1cccc(-c2ccc(-c3cccc(O)c3)cc2)c1",
    "QUALIFYING_SIGN": "=",
    "RBA [%]": 0.01
  }
]

---

# microsomal CLint at 1 µM listing for each entry below
assay: in vitro; conditions: Sprague-Dawley, rat, liver microsomes
ENDPOINT_NAME: microsomal CLint at 1 µM (µL/min/mg)

[
  {
    "SMILES_STRUCTURE": "Oc1cccc(-c2ccc(-c3cccc(O)c3)cc2)c1",
    "ENDPOINT_NAME": "microsomal CLint at 1 µM",
    "UNIT_STRING": "µL/min/mg",
    "RESULT_NUMBER": 203
  },
  {
    "SMILES_STRUCTURE": "Oc1cccc(-c2cnc(-c3cccc(O)c3)s2)c1",
    "ENDPOINT_NAME": "microsomal CLint at 1 µM",
    "UNIT_STRING": "µL/min/mg",
    "RESULT_NUMBER": 367
  },
  {
    "SMILES_STRUCTURE": "Oc1ccc(-c2cc(-c3cccc(O)c3)cs2)cc1",
    "ENDPOINT_NAME": "microsomal CLint at 1 µM",
    "UNIT_STRING": "µL/min/mg",
    "RESULT_NUMBER": 248
  }
]

---

system: Rattus norvegicus; assay: AUC (0 to Tlast) life in Wistar rat at 10 mg/kg, po by cassette dosing; assay type: ADME, organism-based, Plasma; parameters: dose 10 mg/kg, route oral; details: in vivo
ENDPOINT_NAME: AUC (ng·h/mL)

[
  {
    "SMILES_STRUCTURE": "Oc1cccc(-c2nnc(-c3cccc(O)c3)nn2)c1",
    "TEST_SYSTEM": "Rattus norvegicus",
    "RESULT_NUMBER": 1200
  },
  {
    "SMILES_STRUCTURE": "Oc1ccc(-c2cnc(-c3cccc(O)c3)s2)cc1",
    "TEST_SYSTEM": "Rattus norvegicus",
    "RESULT_NUMBER": 99.2
  }
]

---

experiment: in vitro; conditions: human, Caco-2
Description: Apparent permeability across human Caco-2 cells at 50 uM
ENDPOINT_NAME: Papp at 50 µM (×10⁻⁶ cm/s)

[
  {
    "SMILES_STRUCTURE": "Oc1ccc(-c2ccc(-c3cccc(O)c3)s2)cc1",
    "RESULT_NUMBER": 22
  },
  {
    "SMILES_STRUCTURE": "Oc1cccc(-c2ccc(-c3cccc(O)c3)cc2)c1",
    "RESULT_NUMBER": 12.5
  },
  {
    "SMILES_STRUCTURE": "Oc1ccc(-c2cc(-c3cccc(O)c3)cs2)cc1",
    "RESULT_NUMBER": 14.4
  },
  {
    "SMILES_STRUCTURE": "Oc1ccc(-c2cnc(-c3cccc(O)c3)s2)cc1",
    "RESULT_NUMBER": 7.8
  }
]
